All figures here come from PubChem BioAssay AID463173.

Test system: DeltatarO mutant
measurement description: S. aureus survival, RN4220 and DeltatarO strains – OD600, teichoic acid synthesis inhibitors, primary screen (AID 463173)
experimental parameters: S. aureus RN4220 wild type/DeltatarO growth, OD600, 18 h, stronger effect = lower value, screened at 18.75 µg/mL (by protocol)
Out of some 52,000 compounds screened, about 4,300 (8.3%) were called active. The entries come from a sample that favours actives as a whole.
Entries and their measured survival follow.
property label: survival (%)

1. CC(=O)N1CCc2c(sc3nc(SCC(C)C)n(-c4ccc(C)c(Cl)c4)c(=O)c23)C1; 45
2. CC(C)Sc1ncc(Cl)c(C(=O)Nc2c(C(=O)Nc3ccccc3)oc3ccccc23)n1; 61
3. N#Cc1c(-c2cccs2)cc(-c2cccs2)nc1SCc1cccnc1; 65
4. CC(=O)N1CCc2c(sc3nc(SCC(C)C)n(-c4ccc(F)c(Cl)c4)c(=O)c23)C1; 63
5. COc1ccc(C(=O)N2c3ccccc3C(C)(c3ccc(Cl)cc3)CC2(C)C)cc1 (stereo unspecified); 11
6. Cc1ccc(CSc2nc(-c3cccs3)ccc2C#N)cc1; 25
7. O=C(Nc1ccc(O)c(-c2nc3ccccc3o2)c1)c1sc2ccccc2c1Cl; 105
8. Cc1ccc(Cl)cc1NC(=O)COC(=O)CC(C)(C)CC1=NS(=O)(=O)c2ccccc2N1; 84
9. CC1CCN(C(=O)c2cccc(Cl)c2)CC1; 93
10. COc1cccc(C2C=C(c3ccc(C)cc3)Nc3c(C(=O)Nc4ccc(F)cc4)cnn32)c1OC (stereo unspecified); 0
11. CCOC(=O)CSc1nc2sc3c(c2c(=O)n1-c1ccc(OC)cc1)CC(C(C)C)OC3 (stereo unspecified); 73
12. COc1ccc(-n2c(SC)nc3sc4c(c3c2=O)CCN(C(C)=O)C4)cc1; 127
13. CC(=O)N1c2ccccc2C(=O)C1N1CCN(c2ccccc2F)CC1 (stereo unspecified); 90
14. COc1cccc(C2=CC(c3ccccc3F)n3ncc(C(=O)Nc4ccc(F)cc4)c3N2)c1 (stereo unspecified); 72
15. O=C(c1ccccc1Cl)n1cc(Cl)cn1; 95
16. COc1ccc(C(=O)N2CCC(C(=O)Nc3ccc(Cl)cc3)CC2)cc1; 127
17. CCN(CC)S(=O)(=O)c1ccc2c(c1)nc(CN(C)C(=O)Nc1ccc(C)c(Cl)c1)n2C; 86
18. CN1CC2(C)CN(C(=O)c3ccccc3Cl)CC(C)(C1)C2; 88
19. CCSc1nc2sc3c(c2c(=O)n1-c1ccc(C)c(Cl)c1)CCN(C(C)=O)C3; 61
20. O=C(O)CCn1c(=O)c2cccn2c2cccnc21; 98
21. CC1(c2ccccc2)CC(C)(C)N(C(=O)c2cccc(Cl)c2)c2ccccc21 (stereo unspecified); 8
